Kindly supply the reported LDH at E-5M % of change values for the records listed here.
Test system: primary cortico-hippocampal neuron cultures
Assay comment: lactate dehydrogenase (LDH) activity assay in parallel neuron cultures
Test parameters: drug at E-5M
Structures can show the parent of a compound that is named as a salt.
Answers are plain numbers, in %.

# count of solved cases: 4
CC(NCCC(c1ccccc1)c1ccccc1)c1ccccc1 (centres unmarked) [Fendiline Hydrochloride]; −3.0
CC[C@@H](C)C(=O)O[C@H]1[C@H](O)[C@H]2[C@@H](CN3C[C@@H](C)CC[C@H]3[C@@]2(C)O)[C@@H]2C[C@]34O[C@]5(O)[C@@H](OC(=O)[C@](C)(O)[C@@H](C)O)CC[C@@]3(C)[C@@H]5[C@@H](OC(C)=O)[C@@H](OC(C)=O)[C@H]4[C@@]21O (stereo in doubt) [Protoveratrine B]; −2.5
CCCCCCCCNC(C)C(O)c1ccc(SC(C)C)cc1 (centres unmarked) [Suloctidil]; −3.4
C=C(CC)C(=O)c1ccc(OCC(=O)O)c(Cl)c1Cl [Ethacrynic Acid]; 10.0

Could you now consider this next compound?
Form field: reported LDH at E-5M % of change of OCCN(CCO)c1nc(N2CCCCC2)c2nc(N(CCO)CCO)nc(N3CCCCC3)c2n1 [Dipyridamole]
6.4

====

Tested on: Aβ1-40
Assay comment: Aβ1-40 content in conditioned medium of primary cortico-hippocampal neuron cultures from Tg2576 mice (ELISA; primary and secondary dose-response screening)
Assay type: cell-based, mouse
Test parameters: Mus musculus, Neuron, 24 h, primary screening, drug 100 μM, Tg2576 neuron cultures; table sorted by Aβ1-42; read-out: Ab1-40 (% of ctl)
Where a name gives a salt, the structure may show the parent alone.
Kindly supply the reported activity at 100 µM values for the records listed here.
Numbers only, in %.

# count of solved cases: 5
CCC[C@H](N[C@@H](C)C(=O)N1[C@H](C(=O)O)C[C@@H]2CCCC[C@@H]21)C(=O)OCC; 83.8
CC(C)c1nc(N(C)S(C)(=O)=O)nc(-c2ccc(F)cc2)c1/C=C/[C@@H](O)C[C@@H](O)CC(=O)O; 83.6
CC(C)NCC(O)c1ccc2ccccc2c1 (stereo not drawn) [Pronetalol Hydrochloride]; 88
CCCCC1=NC2(CCCC2)C(=O)N1Cc1ccc(-c2ccccc2-c2nnn[nH]2)cc1; 89.7
Cc1ccc(N(CC2=NCCN2)c2cccc(O)c2)cc1 [Phentolamine Hydrochloride]; 83.4

Hi, could you look up activity at 100 µM for each item in my list?
1. Nc1nc(N)c2nc(-c3ccccc3)c(N)nc2n1
2. CC[C@H]1CN2CC[C@H]1C[C@@H]2[C@@H](O)c1ccnc2ccc(OC)cc12 [Hydroquinidine]
3. CC(C)(C)NCC(O)c1ccccc1Cl (stereo not drawn)
4. NS(=O)(=O)c1cc(C(=O)O)c(NCc2ccco2)cc1Cl [Furosemide]

85.1
96.5
95.5
118

Hi, could you look up activity at 100 µM for each item in my list?
1. CC(CCc1ccc(O)cc1)NCCc1ccc(O)c(O)c1 (stereo not drawn) [Dobutamine Hydrochloride]
2. NNc1nncc2ccccc12 [Hydralazine Hydrochloride]
3. CC1Cc2ccccc2N1NC(=O)c1ccc(Cl)c(S(N)(=O)=O)c1 (stereo not drawn) [Indapamide]
4. COc1cc([S+](C)[O-])ccc1-c1nc2ncccc2[nH]1 (stereo not drawn)
5. CC(=O)Nc1ccc(OCC(O)CNC(C)C)cc1 (stereo not drawn)

90.1
66.1
107
116
99.7
